# target or system: Ubiquitin-activating enzyme e1, putative (Leishmania donovani (strain BPK282A1)) (UniProt E9BSI1)
# Sequence (whole entry): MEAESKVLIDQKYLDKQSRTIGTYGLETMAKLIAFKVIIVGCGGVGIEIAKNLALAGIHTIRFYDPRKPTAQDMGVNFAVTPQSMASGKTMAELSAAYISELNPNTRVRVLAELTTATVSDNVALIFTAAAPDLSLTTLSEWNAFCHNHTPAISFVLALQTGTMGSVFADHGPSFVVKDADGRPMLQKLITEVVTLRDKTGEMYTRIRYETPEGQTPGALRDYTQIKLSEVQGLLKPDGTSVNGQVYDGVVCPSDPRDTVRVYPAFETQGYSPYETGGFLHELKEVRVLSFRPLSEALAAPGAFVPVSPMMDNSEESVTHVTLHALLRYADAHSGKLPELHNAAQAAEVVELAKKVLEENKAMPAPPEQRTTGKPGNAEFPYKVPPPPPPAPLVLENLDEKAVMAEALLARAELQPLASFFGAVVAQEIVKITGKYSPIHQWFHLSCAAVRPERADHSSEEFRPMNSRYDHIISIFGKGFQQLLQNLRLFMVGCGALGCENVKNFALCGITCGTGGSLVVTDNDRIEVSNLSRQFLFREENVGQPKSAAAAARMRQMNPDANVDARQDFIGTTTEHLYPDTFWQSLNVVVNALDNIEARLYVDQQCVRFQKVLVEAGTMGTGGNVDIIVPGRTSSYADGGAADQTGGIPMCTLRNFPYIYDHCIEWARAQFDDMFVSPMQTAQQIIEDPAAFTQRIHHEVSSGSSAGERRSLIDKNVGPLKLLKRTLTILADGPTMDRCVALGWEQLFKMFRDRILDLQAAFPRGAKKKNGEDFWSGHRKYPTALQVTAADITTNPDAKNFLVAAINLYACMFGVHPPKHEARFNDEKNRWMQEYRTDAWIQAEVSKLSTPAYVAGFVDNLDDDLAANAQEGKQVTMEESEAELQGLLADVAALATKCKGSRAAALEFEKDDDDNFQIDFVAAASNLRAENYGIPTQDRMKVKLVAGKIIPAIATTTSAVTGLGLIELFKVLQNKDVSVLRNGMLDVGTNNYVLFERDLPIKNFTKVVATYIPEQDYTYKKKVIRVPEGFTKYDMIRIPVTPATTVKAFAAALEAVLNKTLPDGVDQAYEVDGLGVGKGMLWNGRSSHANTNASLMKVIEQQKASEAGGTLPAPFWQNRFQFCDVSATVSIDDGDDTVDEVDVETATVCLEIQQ
# test details: Leishmania donovani Ubiquitin Activating Enzyme (LdE1)
# Format: functional
# Design: scale not given: direction of the effect not stated beside the values
# experimental conditions: 30 µM
Potency and affinity values are given separately.
Could you mark each record Criterion met if its Percent Effect falls strictly under 10%, and Criterion not met if it equals or exceeds it?

# count of solved cases: 5
COCCN(CCc1ccccc1)Cc1nc2c(cnn2C)c(=O)[nH]1; Criterion not met
Cc1cc(C)n(C2CCCN(C(=O)Cc3csc(C)n3)C2)n1 (stereo unspecified); Criterion met
CN(Cc1ccccn1)C1COC2(CCN(Cc3nccs3)CC2)C1 (stereo unspecified); Criterion not met
COc1ccc(Cc2cccc(C3CCN(C)CC3)n2)cc1; Criterion met
Cc1cnn(CC2CN(CC(=O)Nc3nnc(C)s3)CCO2)c1 (stereo unspecified); Criterion not met

Task item: Lab note: confirm whether the reported Percent Effect for this compound is below 10%, equality not counting. compound: CS(=O)(=O)CCC(=O)N1CCC2(CCCN(C3CCOCC3)C2=O)C1 (stereo unspecified)
Reply: Criterion met

Task item: Say whether its Percent Effect is strictly beneath 10%. Entry: "N#Cc1ccc(C(=O)N2CC[C@H]3[C@@H]2CCC(=O)N3c2cccnc2)cc1"
Reply: Criterion not met

Task item: Dear colleague, could you confirm whether Percent Effect of "Cc1ccc(CNCCOc2ccc(S(C)(=O)=O)cc2)cc1" falls below 10%? Thanks.
Reply: Criterion met

Task item: I wonder whether OCC1CCCN1c1cc(N2CCN(c3ccccn3)CC2)ncn1 (stereo unspecified) has Percent Effect below 10%. Can you tell?
Reply: Criterion met

Task item: Strictly below 10% in Percent Effect? "CCC(=O)N1CCN(C(=O)CCn2cccn2)CC1"
Reply: Criterion not met

Task item: Dear colleague, could you confirm whether Percent Effect of "Cc1ccc2cc(CNCCCN3CCOCC3)c(=O)[nH]c2c1" falls below 10%? Thanks.
Reply: Criterion met
